Catalogue of compounds with associated GI50
Test system: MCF7
assayMethodText: Antiproliferative activity against human p53+/- MCF7 cells after 48 hrs by SRB assay
Type: functional
runParameters: MCF7, 48 h
Write the value in µM as a bare number.

Answered examples (4):
- structureSmiles: "FC(F)(F)c1ccc2c(NCCCN3CCCCC3)ccnc2c1"
  assaySystem: "MCF7"
  parameterMeasured: "GI50"
  valueReported: 32.6
- structureSmiles: "Clc1ccc2c(NCCCN3CCOCC3)ccnc2c1"
  assaySystem: "MCF7"
  parameterMeasured: "GI50"
  valueReported: 17.2
- structureSmiles: "O=C1C(=O)N(CCCNc2ccnc3cc(C(F)(F)F)ccc23)c2cccc(Cl)c21"
  assaySystem: "MCF7"
  parameterMeasured: "GI50"
  valueReported: 18.8
- structureSmiles: "FC(F)(F)c1ccc2c(NCCCN3CCN(c4ccnc5cc(Cl)ccc45)CC3)ccnc2c1"
  assaySystem: "MCF7"
  parameterMeasured: "GI50"
  valueReported: 4.6

Now look at this entry.
Which value of GI50 has been reported for `CCN(CC)CCCNc1ccnc2cc(C(F)(F)F)ccc12` in the records?
20.6

All figures here come from ChEMBL document CHEMBL1240425.
